# Test system: HT-29
# Protocol text: NCI tumour cell line growth inhibition, 48 h
Calls of active or inactive are those of the source. Rule as the data show it: active = GI50 up to about 1.1 µM and inactive = higher. Residues, ends and D or L forms follow the SMILES beside them. *: point of attachment. Boc = CC(C)(C)OC(=O)*; OBn = c1ccc(CO*)cc1
Outcome codes: active, inactive

Compound	Measured on	Label
COc1c(Br)cc(/C=C(\C#N)c2cccnc2)cc1Br	HT-29	inactive
O=[N+]([O-])c1ccc2c(c1)c(OCc1ccccc1)nn2Cc1ccccc1	HT-29	inactive
N#CCC(=O)N/N=C1/C(=O)NC(=O)C(=O)C1c1nc2ccccc2s1 (stereo not drawn)	HT-29	inactive
O=C(COc1ccc(Cl)c(Cl)c1)N(Cc1ccccc1)Cc1ccc[n+](Cc2ccc(Cl)cc2S(=O)(=O)F)c1	HT-29	inactive
CC(C)(C)OC(=O)c1ccc(NCC2=CC(=O)C=CC2=O)cc1	HT-29	inactive
C[N+]1(CCCCN2c3ccccc3Sc3cc(N=[N+]=[N-])ccc32)CCN(C(=O)CCNC(=O)Cc2ccc(C(=O)c3ccccc3)cc2)CC1	HT-29	inactive
CC(C)C(NC(=O)CNC(=O)C1CCCN1C(=O)C(NC(=O)OC(C)(C)C)C(C)C)C(=O)NCC(=O)OCc1ccccc1 (stereo not drawn) (Boc-VPGVG-OBn; configuration not given here)	HT-29	inactive
C/C(=C\c1csc(C)n1)[C@@H]1C[C@@H]2O[C@@H]2CCC[C@H](C)[C@H](O)[C@@H](C)C(=O)C(C)(C)[C@@H](O)CC(=O)O1.C/C(=C\c1csc(C)n1)[C@@H]1C[C@@H]2O[C@]2(C)CCC[C@H](C)[C@H](O)[C@@H](C)C(=O)C(C)(C)[C@@H](O)CC(=O)O1	HT-29	active
Cc1ccc2c(c1)C(=O)/C(=C\c1ccccc1)CCS2(=O)=O	HT-29	inactive
O=C1/C(=C/c2ccccc2)CN(C(=O)CCN2CCOCC2)C/C1=C\c1ccccc1	HT-29	inactive
O=c1c2cc(Br)ccc2oc2ccc(Br)cc12	HT-29	inactive
O=Cc1ccc2c(c1)CC1(C2)Cc2ccc3c(c2C1)CCC3 (stereo not drawn)	HT-29	inactive
Nn1c(CCCCCCCCc2nnc(COc3c(O)ccc4ccccc34)n2N)nnc1COc1c(O)ccc2ccccc12	HT-29	inactive
O=C(C(=O)N1CC2C=CC1CC2)c1c[nH]c2ccccc12 (stereo not drawn)	HT-29	inactive
COC1=CC(=O)N(C)C(O)C1(C#N)OC1OC(CO)C(O)C(O)C1O (stereo not drawn)	HT-29	inactive
CCc1n[nH]c(=O)n1-c1ccc2ccccc2c1	HT-29	inactive
CC(=O)C1=C(C)N(c2ccccc2)C2(O)C3=C(C(=O)c4ccccc4C3=O)C(O)=CC12Cl (stereo not drawn)	HT-29	inactive
CC1(C)OC(=O)C(C)(C)C(=O)O1	HT-29	inactive

* * *

# System: SNB-75
# Protocol text: NCI tumour cell line growth inhibition, 48 h
Calls of active or inactive are those of the source. Rule as the data show it: active = GI50 up to about 1.1 µM and inactive = higher.

Compound	Measured on	GI50
CC(=O)NC(CCCCNC(=O)NCCCl)C(=O)NCc1ccccc1 (stereo not given)	SNB-75	> 100 µM (inactive)
CCC(C(=O)c1cccs1)C(O)(C(F)(F)F)C(F)(F)F (stereo not given)	SNB-75	> 100 µM (inactive)
Nn1c(S)nnc1-c1ccccc1Nc1ccccc1-c1nnc(S)n1N	SNB-75	> 50 µM (inactive)
CCOC(=O)/C=C/c1c(C)[nH]c(=O)[nH]c1=O	SNB-75	> 250 µM (inactive)
COc1ccccc1C1SCC(=O)N1c1ccc(-c2ccc(-n3c(-c4ccccc4)nc4ccccc4c3=O)cc2)cc1 (stereo not given)	SNB-75	> 100 µM (inactive)
Oc1ccc2ccccc2c1/N=N/c1cccc2ccccc12	SNB-75	23.6 µM (inactive)
CC1(C)CNC(c2ccc3c(c2)Cc2cc(C4=NC(C)(C)CN4)ccc2-3)=N1	SNB-75	90.6 µM (inactive)
O=C(c1cc2c(c3ccccc13)NCCN=C2C(F)(F)F)C(F)(F)F	SNB-75	21.6 µM (inactive)
N=C(N)N/N=C/c1c(-c2ccc([N+](=O)[O-])cc2)nc2sccn12	SNB-75	1.8 µM (inactive)
Clc1ccc(/C=C/c2nc(Cl)c(-c3ccc(Cl)cc3)c(Cl)n2)cc1	SNB-75	19.3 µM (inactive)
COc1ccc(/C=C(\C(=C/c2ccc(OC)cc2)[N+](=O)[O-])[N+](=O)[O-])cc1	SNB-75	26.1 µM (inactive)
COC(=O)C1=NN2c3ccccc3CN([C@@H](C)c3ccccc3)C(=O)[C@@H]2[C@H]1c1ccccc1	SNB-75	30.3 µM (inactive)
COc1ccccc1NC(=S)Nc1cc(C)cc(C)n1	SNB-75	> 49.4 µM (inactive)
O=[N+]([O-])c1cc(/N=N/c2c(O)ccc3cc(S(=O)(=O)O)ccc23)c(O)c([N+](=O)[O-])c1	SNB-75	> 100 µM (inactive)
C=C(CN(C)C)C(=O)c1ccccc1[N+](=O)[O-]	SNB-75	34.8 µM (inactive)
CC(=O)OC/C=C(/C=C/CNC1CCCCC1)OC(C)=O	SNB-75	31.3 µM (inactive)
CC(=O)Nc1ccc(C(=O)N2N=C(C)/C(=C\c3c(O)ccc4ccccc34)C2=O)cc1	SNB-75	> 100 µM (inactive)
C[N+]1(CCCCN2c3ccccc3Sc3cc(N=[N+]=[N-])ccc32)CCN(C(=O)CCNC(=O)Cc2ccc(C(=O)c3ccccc3)cc2)CC1	SNB-75	20.3 µM (inactive)
CN(C)CCN1Nc2c3ccccc3nc3c(C(=O)NCCCN(C)CCCNC(=O)c4ccc5c6c(c7ccccc7nc46)NN5CCN(C)C)ccc1c23	SNB-75	< 0.01 µM (active)
COC(=O)C(=O)C(C(C)=O)C(=O)NCc1ccc(OC)c(OC)c1 (stereo not given)	SNB-75	> 100 µM (inactive)
